Provide the reported growth inhibition of each item.
# assay-info: NCI Yeast Anticancer Drug Screen. Data for the sgs1 mgt1 strain (AID 161);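 note: 0% = growth of cultures given vehicle only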
# condition-details: S. cerevisiae sgs1 mgt1 strain, at 50.0 µM, active compounds read high
About 79,000 compounds went through this panel and 15% of them were active in at least one assay; those are over-represented in the sample as a whole.
Write down the numeric answer in % and omit the unit.

Just so you know, measured growth inhibition for C[Si](C)(CCCOCC1CO1)O[Si](C)(C)CCCOCC1CO1 (configuration not stated) came out at -5.05

The measured growth inhibition associated with C=CCNC(=S)NCc1cccc2ccccc12 reads 34.1

So, C=CCCCCCCCCC(=O)Nc1cc(Cl)ccc1C ? Its growth inhibition was -10.4

Form: compound = Nc1cc(S(N)(=O)=O)ccc1O ; growth inhibition = -21.9

Looking up O=C1c2ccccc2C2(Br)C(=O)c3ccccc3C12Br (configuration not stated) , I found its growth inhibition recorded as 98.8

For CN(C)S(=O)(=O)c1nc2nc[nH]c(=O)c2[nH]1 the compound record lists growth inhibition as -3.8

// CCc1nnc(N)o1 : growth inhibition value = 0.95

So for COc1ccc2nc3ccccc3c(NCCCN(C)C)c2c1[N+](=O)[O-] , the logged growth inhibition turned out to be 12.9

Reported growth inhibition of O=C1C=CC(=O)c2c1c1c(c3c2C2c4ccccc4C3c3ccccc32)C2c3ccccc3C1c1ccccc12 : 19.9

Measured growth inhibition, CC1(N)CCC(C(C)(C)N)CC1 (configuration not stated) : 10.8

The recorded growth inhibition for entry CCC(C)(O)c1cnc(CC(C)C)c(=O)n1O (configuration not stated) equals 43.3

growth inhibition for [CH3][Ge]([Cl])([c]1ccccc1)[c]1cccc2ccccc12 (configuration not stated) is 10.8

###

# assay-info: NCI Yeast Anticancer Drug Screen. Data for the cln2 rad14 strain (AID 165);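 note: 0% = growth equal to vehicle treated cultures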
# condition-details: S. cerevisiae cln2 rad14 strain, at 50.0 µM, active compounds read high
Compounds without any hit were thinned out: in the full panel of roughly 79,000, 15% have a hit.
assay-metric: growth inhibition (%)
Entry rule: numbers only, all in %.

Field growth inhibition (entry CN(C)CCCC[N+](C)(C)Cc1ccc(C[N+](C)(C)CCCC[N+](C)(C)Cc2ccc(CCl)cc2)cc1 ) reads -0.95

The compound identified as O=Nc1ccc(O)cc1O registered its growth inhibition at -38.6

Lab note: measured growth inhibition of O=C1CN(c2ccccc2)C(=O)CN1/N=C/c1ccc[nH]1 was -21.4

Entry under test: CC(C)C(Nc1ncnc2nc[nH]c12)C(=O)O (stereo not drawn) . Its growth inhibition was -35.2

The recorded growth inhibition for COC(=O)/C=C(/C(=O)OC)N(O)C(=O)CN1C(=O)c2ccccc2C1=O is -17.3

The compound listed as OC1CCCCC1C1CCCCC1 (stereo not drawn) shows growth inhibition equal to 22.3

growth inhibition reading for CC(Nc1ccc(Cl)c(Cl)c1)C1CCOC1=O (stereo not drawn) : 80

According to the records, this compound C/C(CC(=O)Nc1ccccn1)=N\c1ccccn1 displays growth inhibition of -0.35

Note to self: growth inhibition recorded for CCOC(=O)c1ccccc1NC was -4.9

So, CC(C)C(=O)Nc1ccccc1 ? Its growth inhibition was -25.6

growth inhibition reported for this compound c1ccc(C2=Nc3ccccc3N=C3CCCC32)cc1 (stereo not drawn) : 10.6

Item: CN(C)Cc1cc(C(=O)/C=C/c2ccc(Cl)cc2Cl)cc(CN(C)C)c1O | growth inhibition: -51.4

Recorded growth inhibition (compound CCOC(=O)C(C#N)C1CCCC(C)CC1 (stereo not drawn) ): 2.65
